Tested on: RAW-Dual (murine macrophage reporter line)
assay.protocol: NF-kB reporter (SEAP) activity fold change vs agonist alone; higher = enhanced NF-kB activity
test.settings: modulator concentration 10 µM; agonist: MPLA […]
# reported NF-kB reporter; entries follow
Give a plain numeric answer without units written out.

{"compound": "Cc1ncn(CCNC(=O)Nc2ccc(OC(F)(F)F)cc2)c(=O)c1C", "target.desc": "RAW-Dual (murine macrophage reporter line)", "NF-kB reporter": 1.01}
{"compound": "COc1ccc(C=Nn2cnnc2)cc1COc1cc(C)c(Cl)cc1C(C)C", "target.desc": "RAW-Dual (murine macrophage reporter line)", "NF-kB reporter": 0.984}
{"compound": "CC(C)c1cc(C(=O)N2Cc3ccc(CN4CCN(C)CC4)cc3C2)c(O)cc1O", "target.desc": "RAW-Dual (murine macrophage reporter line)", "NF-kB reporter": 0.311}

Exam item: Could you share which NF-kB reporter value was measured for CC(C(=O)O)c1ccc2c(c1)[nH]c1ccc(Cl)cc12 (stereo unspecified) ?
Marked response: 0.879

Exam item: And for `COC(=O)c1ccccc1NC(=O)CCc1ccc(Oc2cc([N+](=O)[O-])cc([N+](=O)[O-])c2)cc1` ?
Marked response: 1.13
